Data origin: PubChem BioAssay

In this section, each of the compounds is paired with its reported GFP response vs DMSO.
procedure.details: TOR pathway GLN3 branch reporter MEP2-GFP changes – S. cerevisiae, multiplex flow cytometry, primary screen (AID 1867);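 note: median GFP channel fluorescence of barcode-gated MEP2-GFP cells measured by flow cytometry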
measurement.conditions: S. cerevisiae MEP2-GFP strain, 3 h, at 10 µM, hits give high values, 100% means same as DMSO wells
Records with an inconclusive call do not appear.
Dear colleague, please return just the value in %, with no unit written.

INSERT INTO assay_data (compound, reported) VALUES
  ('COC(=O)[C@H]1[C@H]2C[C@@H]3c4[nH]c5cc(OC)ccc5c4CCN3C[C@H]2C[C@@H](OC(=O)c2ccc(N)cc2)[C@@H]1OC', 98.3),
  ('COCc1cc(=O)[nH]c(/N=C(\N)Nc2ccc(Oc3ccccc3)cc2)n1', 118),
  ('CCOC(=O)N1CCN(Cc2nc(Cc3cccc(F)c3)no2)CC1', 105),
  ('CC1=C/C(=N\N=C2\NC(=O)C(CC(=O)Nc3ccccc3F)S2)CC(C)(C)C1 (stereo not given)', 125);

Give its GFP response vs DMSO value. Item: `N#C/C(=C/c1ccccc1)C(=O)NCc1ccccc1` 108

====

procedure.details: cytosolic pH regulators acting via V-ATPase – S. cerevisiae, pHLuorin, HTS validation (AID 504600);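 note: plate controls were DMSO for no effect and reference compound for full effect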
measurement.conditions: V-ATPase proton transport, at 10 µM, hits give high values
Listed here are compounds together with their documented response.
Kindly answer with a numeric value in %, unit omitted.

Look up response for this compound: Cn1cc(C2N3CC4(C)CN2CC(C)(C3)C4=O)c2ccccc21 (stereo unspecified) -6.53

Which response value is on record for `N/C(=N\OC(=O)c1ccc(Br)o1)c1ccccn1` ? 5.72

Given the entry `C[C@]12CC[C@@H]3c4ccc(O)cc4[C@@H](O)C[C@H]3[C@@H]1CC[C@@H]2O` , report its measured response. -0.11

====

Tested on: anti-desmoglein-3 scFv antibody binding to human DSG3
procedure.details: blockers of pathogenic pemphigus antibody–desmoglein-3 binding – biochemical, validation compound set, bead-based, flow cytometry, pilot screen (AID 588368);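 note: signal is the median channel fluorescence of bead-bound GFP antibody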
measurement.conditions: Protein G beads, DSG3-Fc, scFv-GFP binding, at 10 µM, hits give low values
# maps each entry to its binding (% of control)
Entry rule: numbers only, all in %.

Use the examples below as a reference point.
INSERT INTO results (compound, observed_property, readout_units, reported) VALUES
  ('CC(CCCC(C)(C)O)NC(=O)c1ccc(OC2CCN(C(=O)C3CC3)CC2)cc1 (stereo not given)', 'binding (% of control)', '%', 101),
  ('CC(=O)NS(=O)(=O)c1ccc(N)cc1', 'binding (% of control)', '%', 103),
  ('O=C(/C=C/c1ccccc1)c1ccccc1', 'binding (% of control)', '%', 107),
  ('C=C(C)[C@@H]1CC=C(CN2CCC(N3CCC(C(=O)N4CCCC4)CC3)CC2)CC1', 'binding (% of control)', '%', 130),
  ('CC1(C)O[C@@H]2C[C@H]3[C@@H]4C[C@H](F)C5=CC(=O)C=C[C@]5(C)[C@@]4(F)[C@@H](O)C[C@]3(C)[C@]2(C(=O)CO)O1', 'binding (% of control)', '%', 104),
  ('C1COC(NC(C2CC2)C2CC2)=N1', 'binding (% of control)', '%', 98.3),
  ('N/C(Cc1ccc(Cl)cc1Cl)=N\OC(=O)c1ccc(Br)o1', 'binding (% of control)', '%', 105),
  ('CC(NC(=O)c1ccc(N2CCNCC2)c([N+](=O)[O-])c1)C12CC3CC(CC(C3)C1)C2 (stereo not given)', 'binding (% of control)', '%', 98.2);

Query (compound): `COc1ccc(-c2cc(=Nc3ccc(C)cc3)c3ccccc3o2)cc1` ; field requested: binding (% of control) 97.3

Reported binding (% of control) for `CC(=O)[C@H]1CC[C@H]2[C@@H]3CCC4=CC(=O)CC[C@]4(C)[C@H]3[C@H](O)C[C@]12C` : what is it? 97.4

====

target.system: Beta-adrenergic receptor kinase 1 (Homo sapiens) (UniProt P25098)
Sequence (P25098 whole entry, looked up): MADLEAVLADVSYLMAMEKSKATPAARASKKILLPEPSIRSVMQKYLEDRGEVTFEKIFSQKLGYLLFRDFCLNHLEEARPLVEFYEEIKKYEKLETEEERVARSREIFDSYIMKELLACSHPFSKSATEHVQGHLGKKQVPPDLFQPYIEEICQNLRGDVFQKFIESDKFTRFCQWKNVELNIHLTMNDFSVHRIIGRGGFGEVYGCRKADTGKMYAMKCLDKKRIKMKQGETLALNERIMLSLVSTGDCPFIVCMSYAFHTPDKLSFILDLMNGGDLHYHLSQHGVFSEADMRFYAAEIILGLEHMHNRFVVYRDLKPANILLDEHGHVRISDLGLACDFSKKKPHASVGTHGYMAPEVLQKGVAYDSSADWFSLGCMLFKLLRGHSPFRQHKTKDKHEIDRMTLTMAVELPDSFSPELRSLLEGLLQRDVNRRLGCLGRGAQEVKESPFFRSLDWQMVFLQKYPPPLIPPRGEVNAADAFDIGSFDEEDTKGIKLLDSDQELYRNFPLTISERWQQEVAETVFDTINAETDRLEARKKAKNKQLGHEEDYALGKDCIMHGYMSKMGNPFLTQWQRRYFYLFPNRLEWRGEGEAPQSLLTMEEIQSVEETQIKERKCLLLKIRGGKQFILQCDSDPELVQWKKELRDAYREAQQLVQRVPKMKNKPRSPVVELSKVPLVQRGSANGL
procedure.details: GRK2 binders displacing RNA aptamer, biochemical, validation, human GRK2, bead flow cytometry (AID 488806)
measurement.conditions: bead-bound GRK2, FAM-aptamer displacement, at 10 µM, hits give high values
The following compounds are listed with their measured aptamer binding inhibition values.
Numbers only here, please. The scale is %.

INSERT INTO measurements (compound, reported) VALUES
  ('CCCCCCCCCC(=O)OCC(O)CO (stereo unspecified)', 4);

Quick check: aptamer binding inhibition of `CCn1c(N2CCN(CC(=O)c3c(C)n(C)c4ccc(OC)cc34)CC2)nc2c1c(=O)[nH]c(=O)n2C` ? 1

Request the reported aptamer binding inhibition associated with `COc1ccc(O)c(C2=Nc3ccccc3N=C(c3ccccc3)C2)c1` 4

Would you kindly share the measured aptamer binding inhibition for `CC(C)N(C(=O)Cc1ccccc1[N+](=O)[O-])C(C)C` ? 2

State the recorded aptamer binding inhibition for this entry: `OCC1CCN(Cc2cn(Cc3ccccc3)nc2-c2cc3ccccc3o2)CC1` -3

Which aptamer binding inhibition is listed for `C[C@H]1O[C@@H](O[C@H]2[C@@H](O)C[C@H](O[C@H]3[C@@H](O)C[C@H](O[C@H]4CC[C@@]5(C)[C@H](CC[C@@H]6[C@@H]5C[C@@H](O)[C@]5(C)[C@@H](C7=CC(=O)OC7)CC[C@]65O)C4)O[C@@H]3C)O[C@@H]2C)C[C@H](O)[C@@H]1O` ? -2

====

vesicle binding response values by entry
procedure.details: reduced mouse 2C T cell binding to pMHC/ICAM-1 vesicles – MLPCN validation set, flow cytometry, LFA-1/ICAM-1 modulator project, pilot screen (AID 2523);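 note: mean PE anti-B7-1 fluorescence of CD8+ cells relative to row control; 100% = QL9-loaded vesicles with DMSO vehicle in the same plate row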
measurement.conditions: 2C mouse CD8+ T cells, at 7 µM, hits give low values
Enter your answer as a number in %; do not include the unit.

Recorded vesicle binding response, per entry:
INSERT INTO measurements (compound, reported) VALUES
  ('CCNC(=S)N1CCN(CCN2C(=O)c3cccc4cccc(c34)C2=O)CC1', 143),
  ('CC(=O)OCC(=O)[C@@]1(O)CC[C@H]2[C@@H]3CCC4=CC(=O)CC[C@]4(C)[C@H]3[C@@H](O)C[C@@]21C', 4910),
  ('C/C(=N\NC(=O)C1(C)CC1(Br)Br)c1ccc([N+](=O)[O-])cc1 (stereo unspecified)', 390),
  ('CC12CCC(C(=O)N3CCc4ccccc43)(CC1=O)C2(C)C (stereo unspecified)', 115),
  ('Cc1ccc([N+](=O)[O-])cc1NC1OC(CO)C(O)C1O (stereo unspecified)', 186),
  ('COc1ccc2[nH]c(=O)c(CN(C(=O)c3ccco3)C(C)C)cc2c1', 221),
  ('O=C(O)CCC(=O)c1ccc(-c2ccccc2)cc1', 245),
  ('CCc1nc2ccccc2n1Cc1ccc(OC)c(OC)c1', 132);

Give its vesicle binding response value. Item: CCOC(=O)C1CCCN(Cc2nc(Cc3cccc(F)c3)no2)C1 (stereo unspecified) 172

Using the record for Cc1cccc(C)c1NC(=O)C1CCCCN1C (stereo unspecified) , report its vesicle binding response. 92.5

Dear colleague, I am looking for the recorded vesicle binding response of the following compound: CC1(c2ccccc2)CC(C)(C)N2C(=O)C(=O)c3cccc1c32 (stereo unspecified) 148

====

target.system: Beta-2 adrenergic receptor (Homo sapiens) (UniProt P07550)
Sequence (P07550 whole entry, looked up): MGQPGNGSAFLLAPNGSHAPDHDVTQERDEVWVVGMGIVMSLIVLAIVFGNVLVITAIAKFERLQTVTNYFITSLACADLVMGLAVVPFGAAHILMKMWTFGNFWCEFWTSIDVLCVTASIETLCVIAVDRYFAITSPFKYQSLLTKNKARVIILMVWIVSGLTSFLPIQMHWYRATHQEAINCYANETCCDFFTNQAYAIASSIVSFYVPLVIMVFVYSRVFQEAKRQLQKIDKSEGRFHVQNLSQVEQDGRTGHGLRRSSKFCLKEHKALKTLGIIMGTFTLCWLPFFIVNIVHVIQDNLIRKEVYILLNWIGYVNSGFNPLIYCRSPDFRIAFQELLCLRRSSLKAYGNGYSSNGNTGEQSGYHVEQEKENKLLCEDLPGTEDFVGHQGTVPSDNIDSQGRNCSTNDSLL
procedure.details: agonist-induced loss of surface beta2AR – cell-based, FAP fluorogen, flow cytometry, validation set, pilot screen (AID 504459);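 note: agonist-driven loss of surface beta2AR via internalization measured by FAP dye flow cytometry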
measurement.conditions: Am2.2-beta2AR cells, at 10 µM, hits give high values
observed.property: response (%)
Write the value in % as a bare number.

The following compounds have reported results that may help.
INSERT INTO results (compound, readout_units, reported) VALUES
  ('COc1cc(C=NCC2OCCc3ccccc32)cc(OC)c1 (stereo not drawn)', '%', 4.4),
  ('Cc1ccc2c(c1)c1c3n2CCCN(Cc2ccccc2)C3CCC1 (stereo not drawn)', '%', 14.8),
  ('COc1cc(C(=S)N(C)C)ccc1O', '%', 8.54),
  ('c1ccc(Nc2ccccn2)nc1', '%', -8.84),
  ('CC(=O)OC[C@H]1O[C@@H](Sc2cccc3cccnc23)[C@H](OC(C)=O)[C@@H](OC(C)=O)[C@H]1OC(C)=O', '%', -27.5),
  ('O=c1c2ccccc2nc2n1CCCN2', '%', -10.8),
  ('CC1=C(/C=C/C(C)=C/C=C/C(C)=C/C(=O)O)C(C)(C)CCC1', '%', -11.2),
  ('COc1ccc(CN2CCCC(C(=O)c3ccc(Cl)cc3)C2)cc1Cn1cccn1 (stereo not drawn)', '%', 30.8);

GET /values?readout=response&item= CC1(C)c2ccccc2N2CC(=O)NC21/C=C/c1ccco1 (stereo not drawn) 5.81

Param item = `Cn1nnnc1SCC1=C(C(=O)O)N2C(=O)[C@@H](NC(=O)[C@H](O)c3ccccc3)[C@H]2SC1` ; retrieve measured response. 3.85

Which value of response has been reported for COCCCN1C(=O)C(=O)/C(=C(/O)c2ccc3c(c2)CC(C)O3)C1c1cccnc1 (stereo not drawn) in the records? -22.5

Would you kindly share the measured response for `CC(=O)Nc1ccccc1C(=O)C(=O)Nc1ccccc1` ? -12.9

Name the recorded response for CN1C2CCC1CC(OC(c1ccccc1)c1ccccc1)C2 (stereo not drawn) . 8.88

What response value was documented for this compound, `COc1cc(-c2cccs2)cc(=O)c2c(C)oc(C)c12` ? 54

For the compound shown here, COC(=O)C1=C(C)NC(C)=C([N+](=O)[O-])C1c1ccccc1C(F)(F)F (stereo not drawn) , give the reported response. 4.56
